Target: Protein farnesyltransferase (Homo sapiens, UniProt P49354+P49356)
Experiment: Inhibitory activity against Farnesyltransferase quantified by modified SPA assay with improved sensitivity
Assay type: protein-complex assay

- compound: "O=C(NCCCn1ccnc1)C1CN(C2c3ccc(Cl)cc3CCc3cc(Br)cnc32)CCN1C(=O)NC1CCCCC1 (stereo in doubt; 41a)"
  target system: "Protein farnesyltransferase (Homo sapiens, UniProt P49354+P49356)"
  IC50: "100 pM"

* * *

Tested on: Mus musculus
Assay: AUC in mice at 10 mg/kg, po
Format: ADME, organism-based, Plasma
Set-up: dose 10 mg/kg, route oral
Conditions: in vivo

- molecule: "O=C(NCCCn1ccnc1)C1CN(C2c3ccc(Cl)cc3CCc3cc(Br)cnc32)CCN1C(=O)NC1CCCCC1 (stereo in doubt; 41b)"
  AUC / ng·h/mL: 1660
